System: large cell lung cancer cell lines (NCI-H460)
Test: WST-8 cellular proliferation assay, NCI-H460 lung cancer cells
Format: cell-based
Details: Homo sapiens, NCI-H460; Table 4, EGFRi derivatives; WST-8; read-out: IC50 Cancer Cells ATCC NCI-H460
endpoint_label: pIC50
Please keep in mind that pIC50 is minus log10 of the molar concentration; only the number is needed.

Please provide the recorded pIC50 for C#Cc1cccc(Nc2ncnc3cc(OCCOC)c(OCCOC)cc23)c1 [Tarceva ® (Erlotinib), Erlotinib] , tested on large cell lung cancer cell lines (NCI-H460).
4.90

Please provide the recorded pIC50 for COc1cc2c(Nc3ccc(F)c(Cl)c3)ncnc2cc1OCCOCCNC(=O)COc1ccc(Cn2c(=O)oc3ccc(C)cc32)cc1O [RJS012_1] , tested on large cell lung cancer cell lines (NCI-H460).
5.44

* * *

Tested on: large cell lung cancer cell lines (NCI-H460)
Experiment: WST-8 cellular proliferation assay, NCI-H460 lung cancer cells
Format: cell-based
Conditions: Table 4, EGFRi derivatives; WST-8; read-out: IC50 Cancer Cells ATCC NCI-H460
endpoint_label: IC50 (µM)
Express the result in µM but write the number alone.

Please provide the recorded IC50 for COc1cc2ncnc(Nc3ccc(F)c(Cl)c3)c2cc1NC(=O)/C=C/CN1CCCCC1 , tested on large cell lung cancer cell lines (NCI-H460).
10.6
